molecular target: T1, DnaK, deglutathionylated (E. coli, UniProt P0A6Y8 1-638); experiment: fluorescence polarisation; steady state; 20 nM FITC-…, increasing concentrations of DnaK, 60 min incubation, Buffer B (50 mM Tris-HCl pH 7.5, 100 mM KCl, 5 mM MgCl2), room temperature; apo or ADP state; single site binding model; settings: both partners purified
T1 construct: DnaK (bacterial Hsp70), E. coli, gene dnaK cloned from genomic DNA of E. coli C41 cells; primers from the start to the stop codon; also called deglutathionylated DnaK; not shown: His6, N-terminal, cleaved; Smt3, N-terminal, cleaved
T1 sequence (P0A6Y8 whole entry): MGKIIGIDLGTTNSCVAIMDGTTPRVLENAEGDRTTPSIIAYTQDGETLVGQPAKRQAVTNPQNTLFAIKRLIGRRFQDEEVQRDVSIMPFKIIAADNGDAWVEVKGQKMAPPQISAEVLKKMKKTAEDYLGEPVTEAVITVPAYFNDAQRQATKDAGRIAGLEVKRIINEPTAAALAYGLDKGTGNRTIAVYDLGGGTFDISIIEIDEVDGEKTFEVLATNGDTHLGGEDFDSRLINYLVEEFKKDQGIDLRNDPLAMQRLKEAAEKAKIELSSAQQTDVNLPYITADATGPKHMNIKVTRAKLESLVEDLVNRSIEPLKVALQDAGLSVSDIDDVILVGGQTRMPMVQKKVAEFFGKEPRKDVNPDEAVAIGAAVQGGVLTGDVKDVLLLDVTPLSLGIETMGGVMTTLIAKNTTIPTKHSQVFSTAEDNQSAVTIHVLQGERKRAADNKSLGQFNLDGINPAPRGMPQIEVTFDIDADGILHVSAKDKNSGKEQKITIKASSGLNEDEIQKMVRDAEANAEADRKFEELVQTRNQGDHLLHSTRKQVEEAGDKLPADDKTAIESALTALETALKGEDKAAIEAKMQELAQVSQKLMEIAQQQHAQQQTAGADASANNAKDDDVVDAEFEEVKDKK
No end group written: not given here. *: point of attachment. FITC = O=C1OC2(c3ccc(O)cc3Oc3cc(O)ccc32)c2ccc(NC(=S)*)cc21

BINDER: {FITC}-ALLLSAPRR (also called FAR) [FITC-ALLLSAPRR peptide]
Kd: 200 to 500 nM
